The origin of these recorded values is patent US20240270821A1.

For each record, write down the corresponding cAMP Rel EC50, nM (1% HSA).
# SYSTEM TESTED: human glucagon receptor (human) (UniProt P47871)
# Sequence (P47871 26-477): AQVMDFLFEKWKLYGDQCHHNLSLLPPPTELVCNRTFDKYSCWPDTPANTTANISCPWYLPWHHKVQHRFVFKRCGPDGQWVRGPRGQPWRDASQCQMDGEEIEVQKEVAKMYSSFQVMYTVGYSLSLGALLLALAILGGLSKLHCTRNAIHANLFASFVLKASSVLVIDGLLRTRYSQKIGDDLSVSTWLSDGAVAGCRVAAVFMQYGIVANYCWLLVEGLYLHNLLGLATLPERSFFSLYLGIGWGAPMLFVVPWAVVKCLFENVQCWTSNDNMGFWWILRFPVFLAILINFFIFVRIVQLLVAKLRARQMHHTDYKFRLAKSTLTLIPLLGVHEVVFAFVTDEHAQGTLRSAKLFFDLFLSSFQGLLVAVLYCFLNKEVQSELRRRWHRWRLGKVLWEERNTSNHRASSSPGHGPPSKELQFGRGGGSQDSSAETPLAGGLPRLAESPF
# ASSAY SUMMARY: cell-based or functional assay
Numbers only, in nM.

Examples from the recorded data:
YXQGTFTSDXSRXLDKKAQXAFIEYLIAGGPSSGAPPPSGSEE (Aib, 4Pal, αMeL, Me4Pal; γGlu2-C18 diacid Lys; C-term amide; synthetic construct; SITE 2: note = 2-Aminoisobutyric Acid; SITE 10: note = 3-(4-Pyridyl)-L-alanine; SITE 13: note = alpha-methyl-leucine; SITE 17: note = Lysine is chemically modified through conjugation of the epsilon-amino group of the Lysine side chain with (gamma-Glu)2-CO-(CH2)16-CO2H; SITE 20:) [Example 962]
485
YXQGTXTSDYSILLDKKAQXAFIEYLEEGGPSSGAPPPSGE (synthetic construct; SITE 2: note = 2-Aminoisobutyric Acid; SITE 6: note = alpha-methyl-2-fluoro-L-phenylalanine; SITE 17: note = Lysine is chemically modified through conjugation of the epsilon-amino group of the Lysine side chain with (gamma-Glu)2-CO-(CH2)16-CO2H; SITE 20: note = 2-Aminoisobutyric) [Example 435]
334

Let us move to another entry and its cAMP Rel EC50, nM (1% HSA).
Query (binder): YXQGTFTSDXSXXLDXKAQXEFIEXLLEGGPSSGAPPPSGSEE (non-natural residues; lipidated Lys; C-terminal amide; synthetic construct; SITE 2: note = 2-Aminoisobutyric Acid; SITE 10: note = 3-(4-Pyridyl)-L-alanine; SITE 12: note = L-ornithine; SITE 13: note = alpha-methyl-leucine; SITE 16: note = L-ornithine; SITE 17: note = Lysine is chemically modified through conjugation of the epsilon-amino group of the Lys) [Example 976] ; field requested: cAMP Rel EC50, nM (1% HSA)
848
